tested on: DMS 273 small cell lung; assay: NCI tumour cell line growth inhibition, 48 h
Here, each record is paired with measured TGI data.

Record excerpt, results attached:
INSERT INTO results (compound, result_value) VALUES
  ('Cc1c2ccncc2c(C)c2c1[nH]c1ccc(OC(C)C)cc12', '2.07 µM'),
  ('Cc1cc(CC(=O)NCCO)n(CCO)c(=O)c1', '> 100 µM'),
  ('BrC1=CCC23CC=C(Br)[C@H]4CC2(COC3)C[C@@H]1O4 (stereo not given in full)', '> 100 µM'),
  ('O=c1cc(-c2ccccc2)c2ccccc2[nH]1', '> 100 µM'),
  ('O/N=C1/C(=C/c2ccc3c(c2)OCO3)CCCC1C(NO)c1ccc2c(c1)OCO2 (stereo not given)', '47.3 µM');

### Prompt Consider the compound O=C(O)CCCSC(=O)Nc1ccc(N=Nc2ccccc2)cc1 and give its measured TGI.
### Response > 100 µM

### Prompt Can you handle CCN(CC)c1c(C(=O)/C=C/c2ccc(Cl)cc2)c(-c2ccccc2)nn(C)c1=O next?
### Response 3.41 µM

###

test system: HCT-116 colon; experiment: NCI tumour cell line growth inhibition, 48 h
parameter.measured: TGI

Known TGI results, listed for orientation:
INSERT INTO results (smiles_text, result_value) VALUES
  ('COc1ccc([C@H]2CC(=O)C[C@H](c3ccc(OC)cc3)C23C(=O)c2ccccc2C3=O)cc1', '> 100 µM'),
  ('COC12C=C/C(=C(/C(=O)OCc3cncnc3)C(=O)CCCCCCCCC3(OC)C=C/C(=C(/C(=O)OCc4cncnc4)C(=O)CCCCCCCC1)O3)O2', '0.433 µM'),
  ('O=C(c1ccccc1)n1c(Cc2ccccc2)nc2cc(C34CC5CC(CC(C5)C3)C4)ccc21', '> 100 µM');

### Prompt # query: TGI of entry O=C1N(C2CCCCC2)CC12CCCCC2
### Response > 100 µM

### Prompt Can you handle C/C(=C(/C)c1ccc(O)cc1)c1ccc(O)cc1 next?
### Response > 100 µM

###

tested on: SN12C renal; assay: NCI tumour cell line growth inhibition, 48 h
The following molecules are listed with their measured TGI values.

// known answers, use as guide
INSERT INTO measurements (molecule, result_value) VALUES
  ('ClCc1cccc2c(CCl)cccc12', '32.2 µM'),
  ('CC1(C)C2C=C(CCN3CCOCC3)CC1C2 (stereo unspecified)', '> 100 µM'),
  ('COC(=O)c1ccc(-c2nc3cc(Cl)c(Cl)cc3nc2C#N)cc1', '> 100 µM'),
  ('COc1ncnc2c(-c3ccccc3)cn(COCc3ccccc3)c12', '30 µM'),
  ('CC(=O)c1ccc2c(c1)c1c(C)c3c[n+](C)ccc3c(C)c1n2C', '4.9 µM');

### Prompt Form field - read-out: TGI; system: SN12C renal; submitted item: O=C1CSC(=S)N1
### Response > 100 µM

### Prompt Repeat for the following molecule: CNC(=O)Nc1nc2ccc([N+](=O)[O-])cc2[nH]1
### Response > 100 µM

### Prompt Could you do the same for CCOC(=O)N1CCN(/[N+]([O-])=N/Oc2ccc([N+](=O)[O-])cc2[N+](=O)[O-])CC1 , please?
### Response 6.92 µM

### Prompt Same read-out for O=C(O)CN(CC(=O)O)Cc1cc(C#Cc2ccc(C#Cc3ccccc3)cc2)cc(CN(CC(=O)O)CC(=O)O)n1 ?
### Response > 100 µM

### Prompt # repeat for O=C(O)Cc1c(-c2ccc([N+](=O)[O-])cc2)c(=O)oc2cc(O)ccc12
### Response > 100 µM

### Prompt And then c1coc(CNc2ncnc3[nH]ncc23)c1 , what is it?
### Response > 100 µM
